Hello, the source for this data is ChEMBL document CHEMBL4339216, in case you need it.

Listed molecules paired with reported IC50
- target-desc: Aldo-keto reductase family 1 member C2 (Homo sapiens, UniProt P52895)
- Sequence (P52895 whole entry): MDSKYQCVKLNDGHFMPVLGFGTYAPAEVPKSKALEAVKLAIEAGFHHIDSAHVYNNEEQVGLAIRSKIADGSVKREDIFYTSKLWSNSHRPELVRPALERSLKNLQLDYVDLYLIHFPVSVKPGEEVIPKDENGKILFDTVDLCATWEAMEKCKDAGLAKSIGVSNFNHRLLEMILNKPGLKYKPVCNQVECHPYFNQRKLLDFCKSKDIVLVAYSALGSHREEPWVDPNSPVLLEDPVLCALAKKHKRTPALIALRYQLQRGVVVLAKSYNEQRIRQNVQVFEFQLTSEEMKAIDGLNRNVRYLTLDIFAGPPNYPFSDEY
- measurement-protocol: Inhibition of N-terminal GST-tagged recombinant human AKR1C2 expressed in Escherichia coli BL21 (DE) Codon Plus RP cells assessed as reduction in NADPH production

molecule: COc1ccc2c(c1)c(Cc1nn(C)nc1O)c(C)n2C(=O)c1ccc(Cl)cc1
target-desc: Aldo-keto reductase family 1 member C2 (Homo sapiens, UniProt P52895)
IC50 (µM): 14.2

molecule: COc1ccc2c(c1)c(CC(=O)O)c(C)n2C(=O)c1ccc(Cl)cc1 [INDOMETHACIN]
target-desc: Aldo-keto reductase family 1 member C2 (Homo sapiens, UniProt P52895)
IC50 (µM): 8.97

molecule: COc1ccc2c(c1)c(Cc1nonc1O)c(C)n2C(=O)c1ccc(Cl)cc1
target-desc: Aldo-keto reductase family 1 member C2 (Homo sapiens, UniProt P52895)
IC50 (µM): 26.7
